target: DPP-IV obtained from pig kidney (Sus scrofa)
Sequence (P22411 whole entry): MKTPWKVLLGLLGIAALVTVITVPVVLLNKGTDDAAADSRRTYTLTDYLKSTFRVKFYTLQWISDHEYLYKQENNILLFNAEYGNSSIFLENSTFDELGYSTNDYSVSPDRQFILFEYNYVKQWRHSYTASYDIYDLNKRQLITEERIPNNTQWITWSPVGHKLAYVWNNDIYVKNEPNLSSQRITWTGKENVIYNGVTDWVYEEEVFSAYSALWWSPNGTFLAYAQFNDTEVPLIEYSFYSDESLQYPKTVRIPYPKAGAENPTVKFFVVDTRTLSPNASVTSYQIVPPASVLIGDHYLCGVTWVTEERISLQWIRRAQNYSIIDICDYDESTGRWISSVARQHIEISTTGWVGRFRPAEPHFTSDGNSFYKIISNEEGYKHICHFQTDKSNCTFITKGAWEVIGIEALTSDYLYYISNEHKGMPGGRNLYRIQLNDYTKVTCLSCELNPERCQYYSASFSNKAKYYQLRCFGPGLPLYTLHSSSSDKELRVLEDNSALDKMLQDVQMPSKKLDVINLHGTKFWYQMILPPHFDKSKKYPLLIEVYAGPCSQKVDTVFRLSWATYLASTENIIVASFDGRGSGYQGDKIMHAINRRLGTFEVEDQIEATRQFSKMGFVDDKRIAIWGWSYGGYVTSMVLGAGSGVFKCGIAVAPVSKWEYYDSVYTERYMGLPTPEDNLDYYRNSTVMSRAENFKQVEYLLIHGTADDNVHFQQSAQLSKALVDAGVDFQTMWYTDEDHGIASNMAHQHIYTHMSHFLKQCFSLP
pIC50: −log10 of the molar value. Where a name gives a salt, the structure may show the parent alone.
Answer not fulfilled if pIC50 is under 7, and fulfilled if it is 7 or more.

Compound	Discrete label
CC#CCn1c(=O)n(-c2cnc(OC)nc2)c2ncnc(N3CCNCC3)c21.O=C(O)C(F)(F)F [Example 64, trifluoroacetic acid salt]	fulfilled
CC#CCn1c(=O)n(Cc2ccccc2C#N)c2nc(Cl)nc(N3CCNCC3)c21 [Example 29, trifluoroacetic acid salt]	fulfilled
CC#CCn1c(=O)n(CC(=O)O)c2nc(Cl)nc(N3CCNCC3)c21 [Example 31, trifluoroacetic acid salt]	not fulfilled
CC#CCn1c(=O)[nH]c2ncnc(N3CCNCC3)c21 [Example 75, trifluoroacetic acid salt]	not fulfilled

Where do the numbers come from? From patent US7524847B2.
